CC50 values for the compounds below.
assay: in vitro; conditions: human
MEASUREMENT NAME: CC50

>>> result("CO[C@H](C(C)C)[C@H](NC(=O)C(F)(F)C(F)(F)F)C(=O)N1C[C@H]2[C@@H]([C@H]1C(=O)N[C@H](C#N)C[C@@H]1CCNC1=O)[C@H]1C=C[C@@H]2C1")
"> 1 µM"
>>> result("Cc1cn(C(C(=O)N2C[C@H]3[C@@H]([C@H]2C(=O)N[C@H](C#N)C[C@@H]2CCNC2=O)[C@H]2C=C[C@@H]3C2)C(C)(C)C)nn1 (stereo partly drawn)")
"> 10 µM"
>>> result("CC(C)(C)[C@H](NC(=O)C(F)(F)F)C(=O)N1C[C@H]2[C@@H]([C@H]1C(=O)N[C@H](C#N)CC1Cc3ccccc3NC1=O)[C@H]1C=C[C@@H]2C1 (stereo partly drawn)")
"> 10 µM"

---

CC50 values for the compounds below.
test: in vitro; conditions: human
MEASUREMENT NAME: CC50

>>> result("CC(C)(C)[C@H](NC(=O)C(F)(F)Cl)C(=O)N1C[C@@H]2[C@H]3C[C@@H]([C@@H]2[C@H]1C(=O)N[C@H](C#N)C[C@@H]1CCNC1=O)[C@H](F)C3")
"> 100 µM"
>>> result("Cc1cn(C(C(=O)N2C[C@H]3[C@@H]([C@H]2C(=O)N[C@H](C#N)C[C@@H]2CCNC2=O)[C@H]2C=C[C@@H]3C2)C(C)(C)C)nn1 (some centres unmarked)")
"> 10 µM"
>>> result("CC(C)(C)[C@H](NC(=O)C(F)(F)F)C(=O)N1C[C@H]2[C@@H]([C@H]1C(=O)N[C@H](C#N)CC1Cc3ccccc3NC1=O)[C@H]1C=C[C@@H]2C1 (some centres unmarked)")
"> 10 µM"
>>> result("[2H]C1=C[C@@H]2C[C@H]1[C@H]1[C@@H]2CN(C(=O)[C@@H](NC(=O)C(F)(F)C(F)(F)F)C(C)(C)C)[C@@H]1C(=O)N[C@H](C#N)C[C@@H]1CCNC1=O")
"> 100 µM"
>>> result("CC(C)(C)[C@H](NC(=O)C(F)(F)F)C(=O)N1C[C@@H]2[C@@H]3CC[C@@H](C3)[C@@H]2[C@H]1C(=O)N[C@H](C#N)CC1Cc2ccccc2NC1=O (some centres unmarked)")
"> 10 µM"

---

target: SARS-Cov-2 3CLpro (Severe acute respiratory syndrome coronavirus 2, UniProt P0DTD1); construct: 3CLpro and HRV3C was added using a Multidrop Combi; test: biochemical; details: 3CLpro, 30 mins preincubation, SAMDI-MS; read-out: SARS-Cov-2 IC50 (class)
pIC50: −log10 of the molar value.
pIC50 values for the compounds below.
MEASUREMENT NAME: pIC50

>>> result("CC(C)(C)[C@H](NC(=O)C(F)(F)F)C(=O)N1C[C@@H]2[C@H]3C[C@H](C[C@@H]3F)[C@@H]2[C@H]1C(=O)N[C@H](C#N)C[C@@H]1CCNC1=O")
"6.70 to 7.70"
>>> result("[2H]C1([2H])C[C@@H](C[C@@H](C#N)NC(=O)[C@@H]2[C@@H]3[C@H](CN2C(=O)[C@@H](NC(=O)C(F)(F)F)C(C)(C)C)[C@@H]2C=C[C@H]3C2)C(=O)N1")
"> 7.70"
>>> result("C#CC(C)(C)[C@H](NC(=O)C(F)(F)F)C(=O)N1C[C@@H]2[C@@H]3CC[C@@H](C3)[C@@H]2[C@H]1C(=O)N[C@H](C#N)C[C@@H]1CCNC1=O")
"6.70 to 7.70"
>>> result("CC(C)(C)[C@H](NC(=O)C(F)(F)Cl)C(=O)N1C[C@H]2[C@@H]([C@H]1C(=O)N[C@H](C#N)C[C@@H]1CCNC1=O)[C@H]1C=C[C@@H]2C1")
"> 7.70"
>>> result("CC(C)(C)[C@H](NC(=O)C(F)(F)F)C(=O)N1C[C@H]2[C@@H]([C@H]1C(=O)N[C@H](C#N)CC1CC3(CC(F)(F)C3)NC1=O)[C@H]1C=C[C@@H]2C1 (mixture of isomers)")
"> 7.70"
>>> result("CC(C)(C)[C@H](NC(=O)C(F)(F)C(F)(F)F)C(=O)N1C[C@H]2[C@@H]([C@H]1C(=O)N[C@H](C#N)C[C@@H]1CCNC1=O)[C@H]1C=C[C@@H]2C1(F)F")
"> 7.70"
>>> result("CC(C)([C@H](NC(=O)C(F)(F)F)C(=O)N1C[C@H]2[C@@H]([C@H]1C(=O)N[C@H](C#N)C[C@@H]1CCNC1=O)[C@H]1C=C[C@@H]2C1)C(F)(F)F [Compound 102a]")
"> 7.70"
>>> result("COCC(C)(C)[C@H](NC(=O)C(F)(F)C(F)(F)F)C(=O)N1C[C@H]2[C@@H]([C@H]1C(=O)N[C@H](C#N)C[C@@H]1CCNC1=O)[C@H]1C=C[C@@H]2C1")
"> 7.70"
>>> result("CC(C)(C)[C@H](OC1CC1)C(=O)N1C[C@H]2[C@@H]([C@H]1C(=O)N[C@H](C#N)C[C@@H]1CCNC1=O)[C@H]1C=C[C@@H]2C1")
"5.70 to 6.70"
>>> result("CC(F)(F)C(=O)N[C@H](C(=O)N1C[C@H]2[C@@H]([C@H]1C(=O)N[C@H](C#N)C[C@@H]1CCNC1=O)[C@H]1C=C[C@@H]2C1)C(C)(C)C")
"> 7.70"
>>> result("CC(C)(C)[C@H](NC(=O)C(F)(F)F)C(=O)N1C[C@H]2[C@@H]([C@H]1C(=O)N[C@H](C#N)C[C@@H]1CCNC1=O)[C@H]1CC[C@@H]2C1(F)F")
"6.70 to 7.70"
>>> result("CC(C)(C)[C@H](NC(=O)C(F)(F)F)C(=O)N1C[C@H]2[C@H]3CC[C@H](CC3)[C@H]2[C@@H]1C(=O)N[C@H](C#N)C[C@@H]1CCNC1=O [Compound 71a]")
"4.70 to 5.70"
>>> result("CC(C)(OCC1CC1)[C@H](NC(=O)C(F)(F)C(F)(F)F)C(=O)N1C[C@H]2[C@@H]([C@H]1C(=O)N[C@H](C#N)C[C@@H]1CCNC1=O)[C@H]1C=C[C@@H]2C1")
"> 7.70"
>>> result("CC(C)(C)[C@H](NC(=O)C1CC12CC2)C(=O)N1C[C@H]2[C@@H]([C@H]1C(=O)N[C@H](C#N)C[C@@H]1CCNC1=O)[C@H]1C=C[C@@H]2C1 (some centres unmarked)")
"> 7.70"
>>> result("C=CC(C)(C)[C@H](NC(=O)C(F)(F)F)C(=O)N1C[C@H]2[C@@H]([C@H]1C(=O)N[C@H](C#N)C[C@@H]1CCNC1=O)[C@H]1C=C[C@@H]2C1")
"> 7.70"
>>> result("CC(C)(C)[C@H](NC(=O)C1CC1)C(=O)N1C[C@H]2[C@@H]([C@H]1C(=O)N[C@H](C#N)C[C@@H]1CCNC1=O)[C@H]1C=C[C@@H]2C1")
"> 7.70"
>>> result("CC(C)(C)[C@H](NC(=O)[C@H]1CC1(F)F)C(=O)N1C[C@H]2[C@@H]([C@H]1C(=O)N[C@H](C#N)C[C@@H]1CCNC1=O)[C@H]1C=C[C@@H]2C1")
"> 7.70"
>>> result("C[C@@H](OCC1CC1)[C@H](NC(=O)C(F)(F)F)C(=O)N1C[C@H]2[C@@H]([C@H]1C(=O)N[C@H](C#N)C[C@@H]1CCNC1=O)[C@H]1C=C[C@@H]2C1")
"> 7.70"
>>> result("O=C(NC1CC1)C(=O)C(C[C@@H]1CCNC1=O)NC(=O)[C@@H]1[C@@H]2[C@H](CN1C(=O)[C@@H]1C[C@]13CCCc1ccccc13)[C@@H]1C=C[C@H]2C1 (some centres unmarked)")
"> 7.70"
>>> result("CC(C)(C)[C@H](NC(=O)C(F)(F)C(F)(F)F)C(=O)N1C[C@@H]2[C@H]3C[C@@H]([C@@H]2[C@H]1C(=O)N[C@H](C#N)C[C@@H]1CCNC1=O)[C@H](F)C3")
"> 7.70"

---

# IC50 per entry for human cathepsin L (Homo sapiens)
MEASUREMENT NAME: IC50

>>> result("CC(C)(C)[C@H](NC(=O)C1(C(F)(F)F)CC1)C(=O)N1C[C@H]2[C@@H]([C@H]1C(=O)N[C@H](C#N)C[C@@H]1CCNC1=O)[C@H]1C=C[C@@H]2C1")
"≥ 10 µM"
>>> result("C=C1C[C@@H]2C[C@H]1[C@H]1[C@@H]2CN(C(=O)[C@@H](NC(=O)C(F)(F)F)C(C)(C)C)[C@@H]1C(=O)N[C@H](C#N)C[C@@H]1CCNC1=O")
"≥ 10 µM"
>>> result("C=CC(C)(C)[C@H](NC(=O)C(F)(F)F)C(=O)N1C[C@H]2[C@@H]([C@H]1C(=O)N[C@H](C#N)C[C@@H]1CCNC1=O)[C@H]1C=C[C@@H]2C1")
"≥ 10 µM"
>>> result("C[C@@H](OC(C)(C)C)[C@H](NC(=O)C(F)(F)F)C(=O)N1C[C@H]2[C@@H]([C@H]1C(=O)N[C@H](C#N)C[C@@H]1CCNC1=O)[C@H]1C=C[C@@H]2C1")
"≥ 10 µM"
>>> result("CC(C)(C)[C@H](NC(=O)C(F)(F)F)C(=O)N1C[C@H]2[C@@H]([C@H]1C(=O)N[C@H](C#N)CC1Cn3ncnc3NC1=O)[C@H]1C=C[C@@H]2C1 (some centres unmarked)")
"≥ 10 µM"
